# System tested: T1, L-selectin (LS-Rg) (Homo sapiens, UniProt P14151 P14151:39-332)
# T1 chain: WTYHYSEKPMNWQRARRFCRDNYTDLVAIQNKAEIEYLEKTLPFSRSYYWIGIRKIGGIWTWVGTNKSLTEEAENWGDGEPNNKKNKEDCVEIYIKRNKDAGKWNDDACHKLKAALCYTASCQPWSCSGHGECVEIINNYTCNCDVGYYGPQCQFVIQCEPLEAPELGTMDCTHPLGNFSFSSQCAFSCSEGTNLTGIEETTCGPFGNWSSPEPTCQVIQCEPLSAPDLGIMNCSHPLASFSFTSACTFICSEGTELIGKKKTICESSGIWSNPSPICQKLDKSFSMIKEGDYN
# Protocol notes: filter; 4 C, HSMC; 75 nM at room temp
# Condition description: tags: human IgG2 Fc fusion (provided by A. Varki); label: 32P; hairpin
pKd: −log10 of the molar value.

| Binder | pKd |
| --- | --- |
| F13.57 (ssRNA, 2'-NH2 all C and U) RNA: GGGAGGACGAUGCGGUAACAUAAAGUAGCGCGUCUGUGAGAGGAAGUGCCUGGAUCAGACGACUCGCCCGA | 8.52 |
